# Test system: Hs578T complex spheroid growth, percent test/control
# TEST_METHOD_NOTES: Anticancer human tumor Hs578T cell line growth inhibition [AhR]
# CONDITIONS_USED: second compound 3.16 µM; first compound 0.0316 µM; stronger effect = lower value
// classify: if (viability, T/C < 90%) YES else NO

Here's an entry: CC(C)c1c(-c2ccccc2)nc2c(C#N)c[nH]n2c1=O + Cc1cncc(-c2nc(NCCc3c[nH]c4ccccc34)c3ncn(C(C)C)c3n2)c1 . Is its viability, T/C below 90%?
YES

More entries:
Problem: For the compound COc1cc(Nc2ncc3c(n2)-c2ccc(Cl)cc2C(c2c(F)cccc2OC)=NC3)ccc1C(=O)O + CC(CO)NC(=O)c1cc(-c2ccc(Cl)cc2)nn(-c2cnn(C)c2)c1=O , is viability, T/C under 90%?
NO

Problem: For the compound O=C(C=Cc1cccc(S(=O)(=O)Nc2ccccc2)c1)NO + Cc1ccccc1N=Nc1ccc(NC(=O)c2ccnn2C)c(C)c1 , is viability, T/C under 90%?
NO

---

# Test system: Hs578T complex spheroid growth, percent test/control
# TEST_METHOD_NOTES: Anticancer human tumor Hs578T cell line growth inhibition [AhR];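 note: luminescent viability signal as a proxy for spheroid growth; spheroids exposed to agents for one week after three days of growth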
# CONDITIONS_USED: second compound 1 µM; first compound 0.03 µM; stronger effect = lower value
# Excerpt: Multicellular complex tumor spheroid response to aryl hydrocarbon receptor antagonists in combination with a variety of drugs and investigational agents in selected tumor cell lines […] Compounds. […] If the clinical Cmax for an agent had not been determined, the highest concentration tested was 10 microM (Table 1). […]
Attribute: viability, T/C
Reply with just the number (in %).

In the examples that follow, each entry is paired with its recorded viability, T/C.
Form: molecule = Nc1ncn(C2CC(O)C(CO)S2)c(=O)n1 (stereo not given) + CC(CO)NC(=O)c1cc(-c2ccc(Cl)cc2)nn(-c2cnn(C)c2)c1=O ; viability, T/C = 121

The molecule identified as CCN(c1cc(-c2ccc(CN3CCOCC3)cc2)cc(C(=O)NCc2c(C)cc(C)[nH]c2=O)c1C)C1CCOCC1 + CC(CO)NC(=O)c1cc(-c2ccc(Cl)cc2)nn(-c2cnn(C)c2)c1=O registered its viability, T/C at 121

// viability, T/C value for CCc1c2c(nc3ccc(O)cc13)-c1cc3c(c(=O)n1C2)COC(=O)[C@]3(O)CC + Cc1cncc(-c2nc(NCCc3c[nH]c4ccccc34)c3ncn(C(C)C)c3n2)c1 : 59.7

Record summary for CCc1c2c(nc3ccc(O)cc13)-c1cc3c(c(=O)n1C2)COC(=O)[C@]3(O)CC + CC(CO)NC(=O)c1cc(-c2ccc(Cl)cc2)nn(-c2cnn(C)c2)c1=O : reported viability, T/C = 72.5

According to the records, this molecule Nc1ncn(C2CC(O)C(CO)S2)c(=O)n1 (stereo not given) + Cc1ccccc1N=Nc1ccc(NC(=O)c2ccnn2C)c(C)c1 displays viability, T/C of 90.5

Next:
Lab note: measured viability, T/C of Nc1ncn(C2CC(O)C(CO)S2)c(=O)n1 (stereo not given) + Cc1cncc(-c2nc(NCCc3c[nH]c4ccccc34)c3ncn(C(C)C)c3n2)c1 was 82.4

For this molecule ( CCN(c1cc(-c2ccc(CN3CCOCC3)cc2)cc(C(=O)NCc2c(C)cc(C)[nH]c2=O)c1C)C1CCOCC1 + Cc1ccccc1N=Nc1ccc(NC(=O)c2ccnn2C)c(C)c1 ), measured viability, T/C is 106

Please fill in: viability, T/C reported for CCc1c2c(nc3ccc(O)cc13)-c1cc3c(c(=O)n1C2)COC(=O)[C@]3(O)CC + Cc1ccccc1N=Nc1ccc(NC(=O)c2ccnn2C)c(C)c1 = 60.9

Lab note: measured viability, T/C of O=C(C=Cn1cnc(-c2cc(C(F)(F)F)cc(C(F)(F)F)c2)n1)NNc1cnccn1 + Cc1ccccc1N=Nc1ccc(NC(=O)c2ccnn2C)c(C)c1 was 82.5

In plain terms, CC(C)CC(NC(=O)C(Cc1ccccc1)NC(=O)c1cnccn1)B(O)O (stereo not given) + Cc1cncc(-c2nc(NCCc3c[nH]c4ccccc34)c3ncn(C(C)C)c3n2)c1 has a documented viability, T/C of 0.28

The molecule listed as CCN(c1cc(-c2ccc(CN3CCOCC3)cc2)cc(C(=O)NCc2c(C)cc(C)[nH]c2=O)c1C)C1CCOCC1 + Cc1cncc(-c2nc(NCCc3c[nH]c4ccccc34)c3ncn(C(C)C)c3n2)c1 shows viability, T/C equal to 102

The molecule CC(C)CC(NC(=O)C(Cc1ccccc1)NC(=O)c1cnccn1)B(O)O (stereo not given) + CC(CO)NC(=O)c1cc(-c2ccc(Cl)cc2)nn(-c2cnn(C)c2)c1=O showed viability, T/C equal to 0.32

---

# Test system: Hs578T complex spheroid growth, percent test/control
# TEST_METHOD_NOTES: Anticancer human tumor Hs578T cell line growth inhibition [AhR];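 note: luminescent viability signal as a proxy for spheroid growth; spheroids exposed to agents for one week after three days of growth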
# CONDITIONS_USED: second compound 1 µM; first compound 0.0316 µM; stronger effect = lower value
Property: viability, T/C; scope: individual molecules
# output: bare number, implied unit %

viability, T/C for Hs578T complex spheroid growth, percent test/control with input Nc1ncn(C2CC(O)C(CO)O2)c(=O)n1 (stereo unspecified) + Cc1ccccc1N=Nc1ccc(NC(=O)c2ccnn2C)c(C)c1 equals 106

***
Value sought: viability, T/C, system Hs578T complex spheroid growth, percent test/control, item O=C(C=Cc1cccc(S(=O)(=O)Nc2ccccc2)c1)NO + Cc1cncc(-c2nc(NCCc3c[nH]c4ccccc34)c3ncn(C(C)C)c3n2)c1 . Result: 113

Readout viability, T/C for CC1COCCN1c1cc(C2(S(C)(=N)=O)CC2)nc(-c2ccnc3[nH]ccc23)n1 (stereo unspecified) + Cc1cncc(-c2nc(NCCc3c[nH]c4ccccc34)c3ncn(C(C)C)c3n2)c1 , test system Hs578T complex spheroid growth, percent test/control, was 106

// returns viability, T/C for O=C(C=Cc1cccc(S(=O)(=O)Nc2ccccc2)c1)NO + Cc1ccccc1N=Nc1ccc(NC(=O)c2ccnn2C)c(C)c1 with Hs578T complex spheroid growth, percent test/control; value = 109

For the molecule Cn1ncnc1C1c2n[nH]c(=O)c3cc(F)cc(c23)NC1c1ccc(F)cc1 (stereo unspecified) + Cc1ccccc1N=Nc1ccc(NC(=O)c2ccnn2C)c(C)c1 , the measured viability, T/C on Hs578T complex spheroid growth, percent test/control was 107

Short answer on Hs578T complex spheroid growth, percent test/control for Nc1ccn(C2OC(CO)C(O)C2(F)F)c(=O)n1 (stereo unspecified) + Cc1cncc(-c2nc(NCCc3c[nH]c4ccccc34)c3ncn(C(C)C)c3n2)c1 , viability, T/C: 61.6

---

# System: Hs578T complex spheroid growth, percent test/control
# TEST_METHOD_NOTES: Anticancer human tumor Hs578T cell line growth inhibition [AhR];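 note: luminescent viability signal as a proxy for spheroid growth; spheroids exposed to agents for one week after three days of growth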
# CONDITIONS_USED: curve of first compound; second compound 1 µM
EXPERIMENTAL_READOUT: IC50 (nM)
Quick note: give the figure in nM, leave out the unit.

The recorded IC50 for CC(C)CC(NC(=O)C(Cc1ccccc1)NC(=O)c1cnccn1)B(O)O (stereo unspecified) + Cc1cncc(-c2nc(NCCc3c[nH]c4ccccc34)c3ncn(C(C)C)c3n2)c1 is 5.92

Field IC50 (entry NS(=O)(=O)OCC1CC(n2ccc3c(NC4CCc5ccccc54)ncnc32)CC1O (stereo unspecified) + Cc1ccccc1N=Nc1ccc(NC(=O)c2ccnn2C)c(C)c1 ) reads 1520

IC50 reading for COc1ccc([C@@H](O)c2cc(-c3ncnc4cc(N5CCOCC5)ccc34)c(F)cc2Cl)nn1 + CC(CO)NC(=O)c1cc(-c2ccc(Cl)cc2)nn(-c2cnn(C)c2)c1=O : 6020

Turning now to a further record.
GET /value?item= NS(=O)(=O)OCC1CC(n2ccc3c(NC4CCc5ccccc54)ncnc32)CC1O (stereo unspecified) + Cc1cncc(-c2nc(NCCc3c[nH]c4ccccc34)c3ncn(C(C)C)c3n2)c1 &field=IC50 returns 2140

---

# System: Hs578T complex spheroid growth, percent test/control
# TEST_METHOD_NOTES: Anticancer human tumor Hs578T cell line growth inhibition [AhR];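 note: luminescent viability signal as a proxy for spheroid growth; spheroids exposed to agents for one week after three days of growth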
# CONDITIONS_USED: second compound 10 µM; first compound 0.3 µM; stronger effect = lower value
# Excerpt: Multicellular complex tumor spheroid response to aryl hydrocarbon receptor antagonists in combination with a variety of drugs and investigational agents in selected tumor cell lines […] Compounds. […] If the clinical Cmax for an agent had not been determined, the highest concentration tested was 10 microM (Table 1). […]
Collected viability, T/C values appear next to each entry.
State the answer as a number, implicitly in %.

Solved entries:
Recorded result, Nc1ncn(C2CC(O)C(CO)S2)c(=O)n1 (stereo unspecified) + Cc1cncc(-c2nc(NCCc3c[nH]c4ccccc34)c3ncn(C(C)C)c3n2)c1 , viability, T/C: 7.47

Looking up O=C(C=Cn1cnc(-c2cc(C(F)(F)F)cc(C(F)(F)F)c2)n1)NNc1cnccn1 + CC(CO)NC(=O)c1cc(-c2ccc(Cl)cc2)nn(-c2cnn(C)c2)c1=O , I found its viability, T/C recorded as 50

Lookup result for CCc1c2c(nc3ccc(O)cc13)-c1cc3c(c(=O)n1C2)COC(=O)[C@]3(O)CC + Cc1cncc(-c2nc(NCCc3c[nH]c4ccccc34)c3ncn(C(C)C)c3n2)c1 ; measured viability, T/C: 1

Form field viability, T/C, entry CC(C)CC(NC(=O)C(Cc1ccccc1)NC(=O)c1cnccn1)B(O)O (stereo unspecified) + Cc1cncc(-c2nc(NCCc3c[nH]c4ccccc34)c3ncn(C(C)C)c3n2)c1 : 0.36

Sample O=C(C=Cn1cnc(-c2cc(C(F)(F)F)cc(C(F)(F)F)c2)n1)NNc1cnccn1 + Cc1cncc(-c2nc(NCCc3c[nH]c4ccccc34)c3ncn(C(C)C)c3n2)c1 ; viability, T/C observed: 1.17

Turning now to a further compound:
According to the records, this compound CC(C)CC(NC(=O)C(Cc1ccccc1)NC(=O)c1cnccn1)B(O)O (stereo unspecified) + Cc1ccccc1N=Nc1ccc(NC(=O)c2ccnn2C)c(C)c1 displays viability, T/C of 0.53
